- measured_on: Beta-1 adrenergic receptor (Cavia porcellus, UniProt B0FL73)
- Sequence (B0FL73 whole entry): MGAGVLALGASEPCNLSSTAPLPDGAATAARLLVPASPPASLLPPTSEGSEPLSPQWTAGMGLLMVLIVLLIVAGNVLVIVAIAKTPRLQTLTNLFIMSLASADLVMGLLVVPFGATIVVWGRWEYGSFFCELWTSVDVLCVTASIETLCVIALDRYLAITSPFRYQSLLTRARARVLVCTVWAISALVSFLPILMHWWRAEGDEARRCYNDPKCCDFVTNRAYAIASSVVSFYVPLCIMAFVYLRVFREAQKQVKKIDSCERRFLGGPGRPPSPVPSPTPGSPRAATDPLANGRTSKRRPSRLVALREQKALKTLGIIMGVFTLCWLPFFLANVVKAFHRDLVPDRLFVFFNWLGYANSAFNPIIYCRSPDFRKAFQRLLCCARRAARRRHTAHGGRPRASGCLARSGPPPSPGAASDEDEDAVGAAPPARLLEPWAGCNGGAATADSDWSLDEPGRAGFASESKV
- measurement_description: Inhibitory activity against Beta-1 adrenergic receptor in guinea pig atria after treatment with the compound
attribute_measured: EC50 (nM)

a. COc1cc(CC2NCCc3c(F)c(O)c(O)c(F)c32)cc(OC)c1OC (centres undefined)
b. COc1cc(CC2NCCc3cc(O)c(O)c(I)c32)cc(OC)c1OC (centres undefined)
Looking at recorded values for EC50, does a or b come in lower? Please identify the chosen entry by its label.
a
(a: 501 nM, b: 2950 nM)

----------
- measured_on: Thromboxane A2 receptor (Rattus norvegicus)
- measurement_description: Inhibitory activity against […]-mediated contraction of rat thoracic aorta (Thromboxane A2 tau receptor)
- Type: tissue-based
attribute_measured: pKB

>>> test_value("COc1cc(CC2NCCc3c(F)c(O)c(O)c(F)c32)cc(OC)c1OC (centres undefined)")
3.98
>>> test_value("COc1cc(CC2NCCc3cc(O)c(O)c(I)c32)cc(OC)c1OC (centres undefined)")
4.84
>>> test_value("COc1cc(CC2NCCc3c2cc(O)c(O)c3I)cc(OC)c1OC (centres undefined)")
4.31
>>> test_value("COc1cc(CC2NCCc3c2cc(O)c(O)c3C(F)(F)F)cc(OC)c1OC (centres undefined)")
3.7

----------
- measured_on: Beta-1 adrenergic receptor (Cavia porcellus)
attribute_measured: pKi
Recall that pKi is obtained by taking minus log10 of the concentration measured in molar.

State pKi (Beta-1 adrenergic receptor (Cavia porcellus)) of COc1cc(C[C@@H]2NCCc3cc(O)c(O)cc32)cc(OC)c1OC [TRETOQUINOL] .
7.06

----------
- Species: Rattus norvegicus
- measurement_description: Potency ratio was measured as EC50 (trimetoquinol )/EC50 (drug)
- Assay type: functional
We begin with a simple list: items and their reported Potency ratio.
Provide a numeric answer; units are not to be included.

Sample records with Potency ratio:
>>> test_value("COc1cc(CC2NCCc3c(F)c(O)c(O)c(F)c32)cc(OC)c1OC (centres undefined)")
0.00708
>>> test_value("COc1cc(CC2NCCc3cc(O)c(O)c(I)c32)cc(OC)c1OC (centres undefined)")
0.24
>>> test_value("COc1cc(CC2NCCc3c2cc(O)c(O)c3I)cc(OC)c1OC (centres undefined)")
0.07

Give the reported value of Potency ratio for this record: COc1cc(CC2NCCc3c2cc(O)c(O)c3C(F)(F)F)cc(OC)c1OC (centres undefined)
0.00372

----------
- measured_on: UniProt:Q8K4Z4
- Sequence (Q8K4Z4 whole entry): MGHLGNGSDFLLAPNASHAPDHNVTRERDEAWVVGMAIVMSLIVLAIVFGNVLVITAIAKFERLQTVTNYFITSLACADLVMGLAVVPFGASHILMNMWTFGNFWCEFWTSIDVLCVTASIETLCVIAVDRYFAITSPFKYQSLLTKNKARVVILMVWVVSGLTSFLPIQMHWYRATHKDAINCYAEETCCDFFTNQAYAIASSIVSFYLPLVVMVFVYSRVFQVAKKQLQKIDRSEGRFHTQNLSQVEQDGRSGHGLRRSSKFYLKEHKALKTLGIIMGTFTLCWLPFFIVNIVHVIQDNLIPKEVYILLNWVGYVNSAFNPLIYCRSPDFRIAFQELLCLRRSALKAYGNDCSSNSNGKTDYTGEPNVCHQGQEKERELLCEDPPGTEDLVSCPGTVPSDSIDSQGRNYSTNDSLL
attribute_measured: pKi
Recall that pKi is obtained by taking minus log10 of the concentration measured in molar.

State pKi (UniProt:Q8K4Z4) of COc1cc(C[C@@H]2NCCc3cc(O)c(O)cc32)cc(OC)c1OC [TRETOQUINOL] .
7.31
